System: MCF7 breast
runDescription: NCI tumour cell line growth inhibition, 48 h
Assignment: determine reported TGI for the given compounds.

Consider the compound shown here: CC1=NN(C(=O)c2ccccc2O)C(=O)/C1=C/c1ccco1 What is its recorded TGI?
37.9 µM

Consider the compound shown here: COc1ccc(-c2cn(-c3cc(OC)c(OC)c(OC)c3)c(SCc3ccccc3)n2)cc1OC What is its recorded TGI?
> 100 µM

Consider the compound shown here: COc1cc2c(c(O)c1OC)-c1c(cc(OC)c(OC)c1OC)CC(C)C(C)C2 (centres undefined) What is its recorded TGI?
> 100 µM

Consider the compound shown here: O=C1NC2ON=C(c3ccccc3)C2C2ON=C(c3ccccc3)N12 (centres undefined) What is its recorded TGI?
> 100 µM

====

Tested on: HOP-62 NSCLC
runDescription: NCI tumour cell line growth inhibition, 48 h
assayReadout: TGI

Consider the compound shown here: O=C([CH-]C(=O)c1ccccc1)c1ccccc1.O=C([CH-]C(=O)c1ccccc1)c1ccccc1.[La+3].[OH-].[OH3+] What is its recorded TGI?
41.9 µM

Consider the compound shown here: CC(=O)CC(=O)OC1CC(C)CCC1C(C)C (stereo unspecified) What is its recorded TGI?
> 100 µM

Consider the compound shown here: O=c1[nH]c2cc(Cl)ccc2nc1/C(=N\O)C(O)c1cccc([N+](=O)[O-])c1 (stereo unspecified) What is its recorded TGI?
> 100 µM

Consider the compound shown here: C=C1C(=O)O[C@H]2[C@H]1CC/C(COC(=O)NCc1ccc(Cn3c(=O)sn(CCCl)c3=O)cc1)=C\CC[C@@]1(C)O[C@@H]21 What is its recorded TGI?
31.5 µM

Consider the compound shown here: COc1ccc(Br)c(N/N=C2\CCCNC2=O)c1 What is its recorded TGI?
> 100 µM

Consider the compound shown here: CCc1cc(C(=O)OC)cn1C(=N)c1ccc(Cl)cc1 What is its recorded TGI?
> 100 µM

====

Tested on: SK-MEL-5 melanoma
runDescription: NCI tumour cell line growth inhibition, 48 h
assayReadout: TGI

Consider the compound shown here: O=C1c2cc(Cl)ccc2-n2cnnc2C2CSCN12 (centres undefined) What is its recorded TGI?
> 100 µM

Consider the compound shown here: CCOP(=O)(OCC)/C(C#N)=C/c1ncc[nH]1 What is its recorded TGI?
> 100 µM

Consider the compound shown here: c1ccc2c(c1)cc(C1NCCc3[nH]cnc31)c1ccccc12 (centres undefined) What is its recorded TGI?
> 69.8 µM

Consider the compound shown here: CS(=O)(=O)c1nc(-c2cc3c(c(S(C)(=O)=O)n2)CCC3)cc2c1CCCCC2 What is its recorded TGI?
> 100 µM

Consider the compound shown here: O=C(ON=C1c2ccccc2C(Br)C(Br)c2ccccc21)c1cc([N+](=O)[O-])cc([N+](=O)[O-])c1 (centres undefined) What is its recorded TGI?
30.7 µM

Consider the compound shown here: NC1=C(NC(=O)Cc2ccc(F)cc2)C(=O)c2ccccc2C1=O What is its recorded TGI?
> 100 µM

Consider the compound shown here: c1ccc2[nH]c(-c3ccc(-c4nccc5c4[nH]c4ccccc45)cc3)nc2c1 What is its recorded TGI?
14.3 µM

Consider the compound shown here: O=C(CSc1nnc(-c2ccc(N=Cc3ccc(Cl)cc3)cc2)o1)Nc1ccccc1[N+](=O)[O-] What is its recorded TGI?
> 100 µM

Consider the compound shown here: COc1ccc(-c2cn(-c3cc(OC)c(OC)c(OC)c3)c(SCc3ccccc3)n2)cc1OC What is its recorded TGI?
> 100 µM

====

System: HCT-15 colon
runDescription: NCI tumour cell line growth inhibition, 48 h
assayReadout: TGI

Consider the molecule shown here: CCOc1ccccc1N1C(=O)C(=O)C(c2nc3ccccc3o2)C(=O)C1=O What is its recorded TGI?
> 100 µM

Consider the molecule shown here: O=C1CCCCC/C1=C\c1cccc(Cl)c1 What is its recorded TGI?
> 100 µM

Consider the molecule shown here: CC(C)C1CC[C@@H](C)C[C@@]1(O)CC(N)=O (some centres undefined) What is its recorded TGI?
> 100 µM

Consider the molecule shown here: CC(=O)CC(=O)OC1CC(C)CCC1C(C)C (centres undefined) What is its recorded TGI?
> 100 µM

Consider the molecule shown here: CN(O)c1nc(N(C)O)nc(N2CCOCC2)n1 What is its recorded TGI?
> 100 µM

Consider the molecule shown here: O=C(NC1=NCC(CN2CCN(c3ccccc3)CC2)O1)Nc1ccccc1 (centres undefined) What is its recorded TGI?
> 100 µM

Consider the molecule shown here: CCCCNc1nc(C#N)c(N)s1 What is its recorded TGI?
> 100 µM

Consider the molecule shown here: C[C@H]1[C@H](C)CC[C@]2(CO)CC[C@]3(C)C(=CC[C@@H]4[C@@]5(C)CCCNC(C)(C)[C@@H]5CC[C@]43C)[C@H]12 What is its recorded TGI?
2.75 µM

Consider the molecule shown here: Cc1ccc(S(=O)(=O)OC2CSS(=O)CC2OS(=O)(=O)c2ccc(C)cc2)cc1 (centres undefined) What is its recorded TGI?
33.6 µM

Consider the molecule shown here: CNc1ncnc2c1ncn2C1C=CC(COS(N)(=O)=O)C1 (centres undefined) What is its recorded TGI?
> 100 µM

Consider the molecule shown here: COC(=O)/C=C(/C)n1nc2ccccc2n1 What is its recorded TGI?
> 100 µM

Consider the molecule shown here: C=C1C(=O)O[C@H]2[C@H]1CC/C(COC(=O)NCc1ccc(Cn3c(=O)sn(CCCl)c3=O)cc1)=C\CC[C@@]1(C)O[C@@H]21 What is its recorded TGI?
3.82 µM

Consider the molecule shown here: CC[C@]1(Cc2ccc(OC)c(OC)c2)C=[N+]([O-])O[C@H](OC2CCCC2(c2ccccc2)c2ccccc2)[C@@H]1OC(=O)c1ccccc1 (some centres undefined) What is its recorded TGI?
> 100 µM

Consider the molecule shown here: Fc1ccc2c(c1)C1=NN(c3ccccc3)C(F)C1CO2 (centres undefined) What is its recorded TGI?
19.9 µM

Consider the molecule shown here: CC(C)Cn1cnc2c(NCC(C)O)nc3ccccc3c21 (centres undefined) What is its recorded TGI?
> 100 µM

Consider the molecule shown here: CC(CCN)(CCN)[N+](=O)[O-] What is its recorded TGI?
> 100 µM

Consider the molecule shown here: C#Cc1c(F)ccc2cc(O)cc(-c3ncc4c(N5CC6CCC(C5)N6)nc(OC[C@@]56CCCN5C[C@H](F)C6)nc4c3F)c12 What is its recorded TGI?
> 50.6 µM

Consider the molecule shown here: C1=NCCN2CCN(CCN=Cc3ccc(cc3)OCc3cccc(n3)COc3ccc1cc3)CC2 What is its recorded TGI?
> 50 µM

Consider the molecule shown here: COc1cc([C@@H]2OC[C@@H]3C(c4cc(OC)c5c(c4)OCO5)OC[C@@H]32)cc(OC)c1OC (some centres undefined) What is its recorded TGI?
> 100 µM

====

System: HOP-92 NSCLC
runDescription: NCI tumour cell line growth inhibition, 48 h
assayReadout: TGI

Consider the compound shown here: CCc1n[nH]c(=O)n1/N=C/c1c(O)ccc2ccccc12 What is its recorded TGI?
> 100 µM

Consider the compound shown here: CC(=O)OCC1OC(n2cnc(C(N)=S)c2N)C(OC(C)=O)C1OC(C)=O (stereo unspecified) What is its recorded TGI?
> 100 µM

Consider the compound shown here: N#Cc1c(N)nc(-c2ccc(Cl)cc2)c2c1-c1ccccc1S(=O)(=O)CC2 What is its recorded TGI?
> 100 µM

Consider the compound shown here: c1ccc2c(c1)cc(C1NCCc3[nH]cnc31)c1ccccc12 (stereo unspecified) What is its recorded TGI?
> 95.6 µM

Consider the compound shown here: COc1ccc2c(c1)c(=O)oc1cc(OC/C(C)=N\O)ccc12 What is its recorded TGI?
> 100 µM

Consider the compound shown here: Cn1cc2ccccc2c1-c1nc(F)nc(F)n1 What is its recorded TGI?
> 100 µM

====

Assignment: determine reported GI50 for the given compounds.
Tested on: K-562 leukemia
runDescription: NCI tumour cell line growth inhibition, 48 h

Consider the compound shown here: C=C1CCC2C3(C)COC(c4ccc(N(C)C)cc4)OC3CCC2(C)C1C/C=C1/C(=O)OCC1O (stereo unspecified) What is its recorded GI50?
1220 nM

Consider the compound shown here: COc1ccc2cc(C(=O)/C=C/c3ccc(Cl)cc3Cl)ccc2c1 What is its recorded GI50?
2530 nM

Consider the compound shown here: O=C(CCCCCCCCC(=O)N/N=C\c1ccccc1O)N/N=C\c1ccccc1O What is its recorded GI50?
398 nM

Consider the compound shown here: Cc1cc2c(cc1C)N(C(=O)CCl)CC(=O)N2 What is its recorded GI50?
3390 nM

Consider the compound shown here: COc1ccc(-c2cn(-c3cc(OC)c(OC)c(OC)c3)c(SCc3ccccc3)n2)cc1OC What is its recorded GI50?
> 100000 nM

Consider the compound shown here: C[C@H]1[C@H](C)CC[C@]2(CO)CC[C@]3(C)C(=CC[C@@H]4[C@@]5(C)CCCNC(C)(C)[C@@H]5CC[C@]43C)[C@H]12 What is its recorded GI50?
471 nM

Consider the compound shown here: CN(CCCn1c2c(c3ccccc3c1=O)C(=O)c1ccccc1-2)CCCn1c2c(c3ccccc3c1=O)C(=O)c1ccccc1-2 What is its recorded GI50?
335 nM

Consider the compound shown here: CC(C)(C)OC(=O)N1CCN(CCn2cc(C(F)(F)F)c3c(Cl)ncnc32)CC1 What is its recorded GI50?
3220 nM

Consider the compound shown here: COc1cc(C[C@H]2c3cc(OC)c(OC)cc3CCN2C)c(Oc2cc3c(cc2OC)-c2c(OC)c(OC)cc4c2[C@H](C3)N(C)CC4)cc1OC What is its recorded GI50?
1490 nM

Consider the compound shown here: COc1ccc(C(=O)OC2C(OC3C(O)COC(O[C@H]4C[C@H]5[C@@H]6CC=C7C[C@@H](O)CC[C@]7(C)[C@H]6CC[C@]5(C)[C@H]4[C@H](C)C(=O)CCC(C)C)C3OC(N)=O)OCC(O)C2O)cc1 (stereo partly specified) What is its recorded GI50?
9.24 nM

Consider the compound shown here: C=C(C)C(=O)O[C@H]1CC(=C)[C@@H]2C[C@H](O)[C@](O)(CCl)[C@@H]2[C@H]2OC(=O)C(=C)[C@@H]21 What is its recorded GI50?
1800 nM
